Give pKi for every item shown.
Counter-ions that a name gives are not always drawn.
Convention used: pKi is expressed as -log10 of the molar concentration.

Name the value of pKi reported for COc1ccc([C@@]23CC[C@@H](NC(=O)Nc4ccc(OC(F)(F)F)cc4)C[C@@H]2N(C)CC3)cc1OC (relative stereo) [Example 70, trifluoroacetate] when tested on human MCH1R receptor (Homo sapiens).
Sequence (Q99705 whole entry): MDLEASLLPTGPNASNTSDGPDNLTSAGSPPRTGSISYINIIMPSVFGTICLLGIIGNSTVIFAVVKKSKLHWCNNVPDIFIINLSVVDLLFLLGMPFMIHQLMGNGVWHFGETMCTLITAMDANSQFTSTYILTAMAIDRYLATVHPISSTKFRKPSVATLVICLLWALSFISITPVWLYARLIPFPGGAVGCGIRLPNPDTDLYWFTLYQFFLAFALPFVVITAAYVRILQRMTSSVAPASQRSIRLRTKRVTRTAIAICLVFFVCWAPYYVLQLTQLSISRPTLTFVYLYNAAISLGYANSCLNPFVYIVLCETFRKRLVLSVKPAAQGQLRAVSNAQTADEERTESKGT
7.28

Name the value of pKi reported for C=CCN(C(=O)Nc1ccc(Cl)c(C(F)(F)F)c1)C1CCC2(c3ccc(OC)c(OC)c3)CCN(C)C2C1 (stereo not drawn) [Example 159] when tested on human MCH1R receptor (Homo sapiens).
7.12

Name the value of pKi reported for CCOc1ccc([C@@]23CC[C@@H](NC(=O)Nc4ccc(F)c(F)c4)C[C@@H]2N(C)CC3)cc1OCC (relative stereo) [Example 208] when tested on human MCH1R receptor (Homo sapiens).
6.59

Source: patent US20050239841A1
